Hello, the source for this data is patent US20240116985A1, in case you need it.

studySystem: T1, full-length beta-Catenin (Uniprot ID P35222) (Homo sapiens (Human), UniProt P35222 1-781)
T1 construct: The assay protocols call it full-length; also called B-Catenin; bCat
T1 sequence: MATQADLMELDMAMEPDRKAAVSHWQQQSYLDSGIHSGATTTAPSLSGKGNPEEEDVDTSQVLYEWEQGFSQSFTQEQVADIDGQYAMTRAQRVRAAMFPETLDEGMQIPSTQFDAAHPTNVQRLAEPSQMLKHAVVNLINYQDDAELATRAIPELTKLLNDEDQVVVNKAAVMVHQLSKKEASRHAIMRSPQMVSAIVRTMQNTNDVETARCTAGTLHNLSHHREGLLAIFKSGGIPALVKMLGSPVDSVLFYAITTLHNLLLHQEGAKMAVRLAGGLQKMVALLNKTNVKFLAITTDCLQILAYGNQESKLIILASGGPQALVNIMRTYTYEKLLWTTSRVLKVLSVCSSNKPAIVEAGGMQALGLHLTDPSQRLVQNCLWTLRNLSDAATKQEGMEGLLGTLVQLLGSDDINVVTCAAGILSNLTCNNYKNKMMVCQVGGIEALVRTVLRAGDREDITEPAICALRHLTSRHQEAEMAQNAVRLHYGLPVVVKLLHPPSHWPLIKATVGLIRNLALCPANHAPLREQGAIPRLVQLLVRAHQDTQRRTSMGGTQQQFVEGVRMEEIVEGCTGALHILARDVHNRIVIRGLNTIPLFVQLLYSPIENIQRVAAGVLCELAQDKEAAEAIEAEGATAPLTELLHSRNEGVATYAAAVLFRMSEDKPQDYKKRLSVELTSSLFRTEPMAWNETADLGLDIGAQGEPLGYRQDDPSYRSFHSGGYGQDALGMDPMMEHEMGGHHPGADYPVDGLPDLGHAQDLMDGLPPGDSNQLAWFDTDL
experimentalProtocol: fluorescence polarization competition; full-length beta-catenin with 5FAM-labelled TCF4 10-53 peptide as competitor
Starred links: 1 amine or outer side, 2 acyl side, 3 side chain; linkers in the order of their positions; H or OH if unused. Positions of bridges follow the written chain, without caps; N, C: chain ends. Non-standard residues stand in square brackets, D forms with d. Primed or numbered codes have the meaning given here. B5(17) = 2,2-bis(4-pentenyl)glycine = 2-amino-2-(pent-4-en-1-yl)hept-6-enoic acid, stitching residue, C=CCCCC(CCCC=C)(N[*:1])C(=O)[*:2]; B5(4) = 2,2-bis(4-pentenyl)glycine = 2-amino-2-(pent-4-en-1-yl)hept-6-enoic acid (stitching residue), C=CCCCC(CCCC=C)(N[*:1])C(=O)[*:2]; Phe(3,4-F2) = N[C@@H](Cc1ccc(F)c(F)c1)C(=O)O; Phe(3-F) = N[C@@H](Cc1cccc(F)c1)C(=O)O; Phe(4-F) = N[C@@H](Cc1ccc(F)cc1)C(=O)O; αAllylPro = C=CC[C@@]1(C(=O)O)CCCN1; 2Pal = N[C@@H](Cc1ccccn1)C(=O)O; 3Pal = N[C@@H](Cc1cccnc1)C(=O)O; S8 = C=CCCCCCC[C@](C)(N)C(=O)O
observationType: EC50 (µM)

XDAXDDAAFVXXWQ (not fully specified; N-terminal Ac; PL3 at 1; B5 at 4; S8 at 11; 1NapA at 12; C-terminal NH2; staples PL3(1)-B5(4) and B5(4)-S8(11) by olefin metathesis, Stapled (stitched) peptide; also called Ac-PL3-Asp-Ala-B5-Asp-Asp-Ala-Ala-Phe-Val-S8-1NapA-Trp-Gln-NH2) [I-275]: 5
Ac-[αAllylPro]DA[B5(17)]D[2Pal]AAFV[S8]FWQ-NH2 (staple 1-4, 4-11, Stapled (stitched) peptide; also called Ac-PL3-Asp-Ala-B5-Asp-2PyrA-Ala-Ala-Phe-Val-S8-Phe-Trp-Gln-NH2) [I-270]: 5
Ac-[αAllylPro]DA[B5(17)]DDAA[Phe(3,4-F2)]V[S8]FWQ-NH2 (staple 1-4, 4-11, Stapled (stitched) peptide; also called Ac-PL3-Asp-Ala-B5-Asp-Asp-Ala-Ala-34FF-Val-S8-Phe-Trp-Gln-NH2) [I-267]: 5
XDAXDDAAFVXFWQ (not fully specified; N-terminal Ac; PL3 at 1; B5 at 4; S8 at 11; 34FF at 12; C-terminal NH2; staples PL3(1)-B5(4) and B5(4)-S8(11) by olefin metathesis, Stapled (stitched) peptide; also called Ac-PL3-Asp-Ala-B5-Asp-Asp-Ala-Ala-Phe-Val-S8-34FF-Trp-Gln-NH2) [I-263]: 5
XDAXDDAAFAXFWA (not fully specified; N-terminal Ac; PL3 at 1; B5 at 4; S8 at 11; C-terminal NH2; staples PL3(1)-B5(4) and B5(4)-S8(11) by olefin metathesis, Stapled (stitched) peptide; also called Ac-PL3-Asp-Ala-B5-Asp-Asp-Ala-Ala-Phe-Ala-S8-Phe-Trp-Ala-NH2) [I-286]: 4.48
Ac-[αAllylPro]DA[B5(17)]D[3Pal]AAFV[S8]FWQ-NH2 (staple 1-4, 4-11, Stapled (stitched) peptide; also called Ac-PL3-Asp-Ala-B5-Asp-3PyrA-Ala-Ala-Phe-Val-S8-Phe-Trp-Gln-NH2) [I-271]: 5
XDAXDDAAFVXFWQ (not fully specified; N-terminal Ac; PL3 at 1; B5 at 4; S8 at 11; 34FF at 12; C-terminal NH2; staples PL3(1)-B5(4) and B5(4)-S8(11) by olefin metathesis, Stapled (stitched) peptide; also called Ac-PL3-Asp-Ala-B5-Asp-Asp-Ala-Ala-Phe-Val-S8-34FF-Trp-Gln-NH2) [I-262]: 5
XDAXDDAAFVXHWQ (not fully specified; N-terminal Ac; PL3 at 1; B5 at 4; S8 at 11; C-terminal NH2; staples PL3(1)-B5(4) and B5(4)-S8(11) by olefin metathesis, Stapled (stitched) peptide; also called Ac-PL3-Asp-Ala-B5-Asp-Asp-Ala-Ala-Phe-Val-S8-His-Trp-Gln-NH2) [I-285]: 5
Ac-[αAllylPro]DA[B5(4)]DDAA[Phe(3-F)]V[S8]FWQ-NH2 (staple 1-4, 4-11; not fully specified; printed as Ac-PL3-Asp-Ala-B5-Asp-Asp-Ala-Ala-3FF-Val-S8-Phe-Trp-Gln-NH2, Stapled (stitched) peptide; also called Ac-PL3-Asp-Ala-B5-Asp-Asp-Ala-Ala-3FF-Val-S8-Phe-Trp-Gln-NH2) [I-265]: 3.76
Ac-[αAllylPro]DA[B5(4)]DDAAFV[S8][Phe(3-F)]WQ-NH2 (staple 1-4, 4-11, Stapled (stitched) peptide; also called Ac-PL3-Asp-Ala-B5-Asp-Asp-Ala-Ala-Phe-Val-S8-3FF-Trp-Gln-NH2) [I-260]: 5
Ac-[αAllylPro]DA[B5(4)]DDAA[Phe(3-F)]V[S8]FWQ-NH2 (staple 1-4, 4-11; not fully specified; printed as Ac-PL3-Asp-Ala-B5-Asp-Asp-Ala-Ala-3FF-Val-S8-Phe-Trp-Gln-NH2, Stapled (stitched) peptide; also called Ac-PL3-Asp-Ala-B5-Asp-Asp-Ala-Ala-3FF-Val-S8-Phe-Trp-Gln-NH2) [I-264]: 5
XDAXDDAAFVXXWQ (not fully specified; N-terminal Ac; PL3 at 1; B5 at 4; S8 at 11; 1NapA at 12; C-terminal NH2; staples PL3(1)-B5(4) and B5(4)-S8(11) by olefin metathesis, Stapled (stitched) peptide; also called Ac-PL3-Asp-Ala-B5-Asp-Asp-Ala-Ala-Phe-Val-S8-1NapA-Trp-Gln-NH2) [I-276]: 3.43
XDAXDDAAFVXFW (not fully specified; N-terminal Ac; PL3 at 1; B5 at 4; S8 at 11; C-terminal NH2; staples PL3(1)-B5(4) and B5(4)-S8(11) by olefin metathesis, Stapled (stitched) peptide; also called Ac-PL3-Asp-Ala-B5-Asp-Asp-Ala-Ala-Phe-Val-S8-Phe-Trp-NH2) [I-289]: 5
XDAXDDAAFVXFW (not fully specified; N-terminal Ac; PL3 at 1; B5 at 4; S8 at 11; C-terminal NH2; staples PL3(1)-B5(4) and B5(4)-S8(11) by olefin metathesis, Stapled (stitched) peptide; also called Ac-PL3-Asp-Ala-B5-Asp-Asp-Ala-Ala-Phe-Val-S8-Phe-Trp-NH2) [I-290]: 3.29
Ac-[αAllylPro]DA[B5(4)]DDAAFV[S8][Phe(4-F)]WQ-NH2 (staple 1-4, 4-11, Stapled (stitched) peptide; also called Ac-PL3-Asp-Ala-B5-Asp-Asp-Ala-Ala-Phe-Val-S8-4FF-Trp-Gln-NH2) [I-261]: 5
Ac-[αAllylPro]DA[B5(4)]DDAA[Phe(4-F)]V[S8]FWQ-NH2 (staple 1-4, 4-11, Stapled (stitched) peptide; also called Ac-PL3-Asp-Ala-B5-Asp-Asp-Ala-Ala-4FF-Val-S8-Phe-Trp-Gln-NH2) [I-266]: 5
